Biological target: CCR1 (Homo sapiens)
Assay: Method B: calcium flux in CCR1 transfected cells (Calcium 4 dye, […] FDSS6000), block of the CCR1/MIP-1α interaction
Type: cell-based
Settings: Method B: Calcium 4 dye, MIP-1alpha at EC80
QUANTITY_MEASURED: IC50 (nM)

# count of solved cases: 6
COMPOUND: C[C@H](O)CNS(=O)(=O)c1ccc(CNC(=O)c2cncc3c2cnn3-c2ccc(F)cc2)cc1
IC50 [nM]: 0.8
//
COMPOUND: CC[C@H](NC(=O)c1cncc2c1cnn2-c1ccc(F)cc1)c1ccnc(Cl)c1
IC50 [nM]: 0.2
//
COMPOUND: CC[C@H](NC(=O)c1cncc2c1cnn2-c1ccc(F)cc1)c1ccnc(N2CCC(S(C)(=O)=O)CC2)c1
IC50 [nM]: 13
//
COMPOUND: CS(=O)(=O)c1cc([C@H](CC(O)CO)NC(=O)c2cncc3c2cnn3-c2ccc(F)cc2)ccn1 (single isomer, unassigned)
IC50 [nM]: 11
//
COMPOUND: CC[C@H](NC(=O)c1cncc2c1cnn2-c1ccc(F)cc1)c1cc(S(C)(=O)=O)[nH]c(=O)c1
IC50 [nM]: 0.3
//
COMPOUND: CC[C@H](NC(=O)c1cncc2c1cnn2-c1ccc(F)cc1)[C@@H]1CCN(S(C)(=O)=O)[C@H](C(N)=O)C1
IC50 [nM]: 12

[I] CC[C@H](NC(=O)c1cncc2c1cnn2-c1ccc(F)cc1)c1ccnc(N(C)C(C)=O)c1
[II] CC[C@H](NC(=O)c1cncc2c1cnn2-c1ccc(F)cc1)c1cc(NC(C)C)nc(S(C)(=O)=O)c1
[III] CC[C@H](NC(=O)c1cncc2c1cnn2-c1ccc(F)cc1)c1nc(S(C)(=O)=O)cs1
Sort entries by IC50 from minimum to maximum value. Use the labels to give the ranking in the order requested. II, III, I

[P] CC[C@H](NC(=O)c1cncc2c1cnn2-c1ccc(F)cc1)c1nc(C(=O)OC)cs1
[Q] CC[C@H](NC(=O)c1cncc2c1cnn2-c1ccc(F)cc1)c1cccc(S(C)(=O)=O)n1
From the recorded data, which exceeds the other in IC50: P or Q ? Your answer should be the label of the entry you select. P

[P] CC[C@H](NC(=O)c1cncc2c1cnn2-c1ccc(F)cc1)c1ccncc1
[Q] COC(=O)C[C@H](NC(=O)c1cncc2c1cnn2-c1ccc(F)cc1)c1ccnc(S(C)(=O)=O)c1
Hi, I'm comparing two records. Which one has the lower IC50, P or Q ? # respond with the chosen item's label Q

* * *

Biological target: CCR1 (Homo sapiens, UniProt P32246)
Sequence (P32246 whole entry): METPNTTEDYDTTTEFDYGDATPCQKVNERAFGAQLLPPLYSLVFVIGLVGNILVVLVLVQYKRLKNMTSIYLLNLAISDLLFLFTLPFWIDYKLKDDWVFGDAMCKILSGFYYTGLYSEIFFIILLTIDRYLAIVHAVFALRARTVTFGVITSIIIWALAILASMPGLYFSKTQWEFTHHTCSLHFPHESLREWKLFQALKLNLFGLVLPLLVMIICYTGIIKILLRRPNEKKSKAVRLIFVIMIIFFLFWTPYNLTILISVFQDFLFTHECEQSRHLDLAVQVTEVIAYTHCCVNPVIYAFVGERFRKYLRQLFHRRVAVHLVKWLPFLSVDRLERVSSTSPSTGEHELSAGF
Assay: Method A: calcium flux in CCR1 transfected cells (Fluo-4 NW, FLIPR TETRA), block of the CCR1/MIP-1α interaction
Type: cell-based
Settings: Method A: Fluo-4 NW, MIP-1 alpha at EC80
pIC50: −log10 of the molar value.
QUANTITY_MEASURED: pIC50

Sample records with pIC50:
COMPOUND: CN(C1CCOCC1)S(=O)(=O)c1ccc(CNC(=O)c2cncc3c2cnn3-c2ccc(F)cc2)cc1
pIC50: 8.70
//
COMPOUND: CN(CCO)S(=O)(=O)c1ccc(CNC(=O)c2cncc3c2cnn3-c2ccc(F)cc2)cc1
pIC50: 9.00
//
COMPOUND: CN(C)C1CCN(S(=O)(=O)c2ccc(CNC(=O)c3cncc4c3cnn4-c3ccc(F)cc3)cc2)CC1
pIC50: 8.52
//
COMPOUND: O=C(NCc1ccc(S(=O)(=O)N2CCOCC2)nc1)c1cncc2c1cnn2-c1ccc(Cl)cc1
pIC50: 8.52
//
COMPOUND: CCCC(NC(=O)c1cncc2c1cnn2-c1ccc(F)cc1)c1cncc(Br)c1 (centres unmarked)
pIC50: 9.40
//
COMPOUND: CC(NC(=O)c1cncc2c1cnn2-c1ccc(F)cc1)c1ccc(S(C)(=O)=O)nc1 (centres unmarked)
pIC50: 8.05
//
COMPOUND: CCCC(NC(=O)c1cncc2c1cnn2-c1ccc(F)cc1)c1ccnc(S(=O)(=O)CC)c1 (centres unmarked)
pIC50: 9.10
//
COMPOUND: CS(=O)(=O)c1cccc(CNC(=O)c2cncc3c2cnn3-c2ccc(F)cc2)n1
pIC50: 7.41
//
COMPOUND: CC[C@H](NC(=O)c1cncc2c1cnn2-c1ccc(Cl)cc1)c1cncc(S(C)(=O)=O)c1
pIC50: 9.40
//
COMPOUND: CN(C)S(=O)(=O)N(C)c1ccc(CNC(=O)c2cncc3c2cnn3-c2ccc(F)cc2)cn1
pIC50: 9.00

[P] C=CC[C@@H](NC(=O)c1cncc2c1cnn2-c1ccc(F)cc1)c1ccnc(Br)c1
[Q] C[C@H](NC(=O)c1cncc2c1cnn2-c1ccc(F)cc1)c1cncc(S(N)(=O)=O)c1
Of P and Q , whose reported pIC50 is numerically smaller? Respond using the label that marks the chosen record. P
(P: 7.77, Q: 8.70)
